# ASSAY_SYSTEM: Skp1^WT (Homo sapiens)
# Construct: recombinantly purify intact (Skp1^WT) and truncate (ΔSkp1^1−140; lacking H8-helix) forms of Skp1; His6; made in house; host or cells: Escherichia coli BL21 (DE3)
# Sequence (P63208 whole entry, the tested form may be a part): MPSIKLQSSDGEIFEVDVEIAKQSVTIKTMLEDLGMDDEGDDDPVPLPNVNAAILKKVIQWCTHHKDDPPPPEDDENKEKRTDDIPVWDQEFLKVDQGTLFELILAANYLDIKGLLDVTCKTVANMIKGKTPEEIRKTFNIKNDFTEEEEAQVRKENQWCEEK
# PROTOCOL_SUMMARY: SPRi assay
# Type: binding
# CONDITION_CONTEXT: as given in the summary
pKd: −log10 of the molar value.
ASSAY_METRIC: pKd

// query Value wanted: pKd (Skp1^WT (Homo sapiens)) of entry Nc1ccc(-c2nc3ccccc3c3[nH]c4ccccc4c23)cc1 [Z0933M]
// result ~7.27

* * *

# ASSAY_SYSTEM: ΔSkp1^1−140 (Homo sapiens)
# Sequence (P63208 1-140, stated change not applied): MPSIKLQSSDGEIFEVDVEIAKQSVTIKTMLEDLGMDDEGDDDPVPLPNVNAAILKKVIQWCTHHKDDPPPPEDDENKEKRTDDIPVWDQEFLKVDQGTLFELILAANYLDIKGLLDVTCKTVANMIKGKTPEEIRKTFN
ASSAY_METRIC: pKd
The read-out pKd is expressed as -log10 of concentration in moles per litre.

// query Value wanted: pKd (ΔSkp1^1−140 (Homo sapiens)) of entry Nc1ccc(-c2nc3ccccc3c3[nH]c4ccccc4c23)cc1 [Z0933M]
// result 7.39

* * *

# ASSAY_SYSTEM: Skp1 (F101A) (Homo sapiens, UniProt P63208, F101A)
# Construct: His6
# Sequence (P63208 whole entry F101A): as the sequence (P63208 whole entry, the tested form may be a part) above, with F101A counted along it
# PROTOCOL_SUMMARY: SPRi assay, Skp1 mutant
ASSAY_METRIC: Kd (nM)
Give your result in nM as a bare value.

// query Query (molecule): Nc1ccc(-c2nc3ccccc3c3[nH]c4ccccc4c23)cc1 [Z0933M] ; field requested: Kd
// result 374

* * *

# ASSAY_SYSTEM: Skp1^F139A (Homo sapiens, UniProt P63208, F139A)
# Construct: His6
# Sequence (P63208 whole entry F139A): as the sequence (P63208 whole entry, the tested form may be a part) above, with F139A counted along it
# PROTOCOL_SUMMARY: SPRi assay, Skp1 mutant
ASSAY_METRIC: pKd
The read-out pKd is expressed as -log10 of concentration in moles per litre.

// query Value wanted: pKd (Skp1^F139A (Homo sapiens, UniProt P63208, F139A)) of entry Nc1ccc(-c2nc3ccccc3c3[nH]c4ccccc4c23)cc1 [Z0933M]
// result 6.34
